# System: LU99A
# Method notes: relative viability (nuclei count vs DMSO), 5 days (fraction); higher = more cells survive
# Experimental conditions: first compound 0.253 µM
Rule: measured relative viability below 0.4 gets 1 (yes); anything equal to or greater than 0.4 gets 0 (no).

Task item: Just wondering, is relative viability of Nc1cccc2c1CN(C1CCC(=O)NC1=O)C2=O (stereo not given) [Lenalidomide] + C[C@]1(O)C[C@@H](c2nc(-c3ccc4ccc(-c5ccccc5)nc4c3)c3c(N)nccn32)C1 [Linsitinib] (partner 1 µM) below 0.4?
Reply: 0 (no)

Task item: Just wondering, is relative viability of Nc1cccc2c1CN(C1CCC(=O)NC1=O)C2=O (stereo not given) [Lenalidomide] + Cc1nc(Nc2ncc(C(=O)Nc3c(C)cccc3Cl)s2)cc(N2CCN(CCO)CC2)n1 [Dasatinib] (partner 0.075 µM) below 0.4?
Reply: 0 (no)

Task item: Just wondering, is relative viability of Nc1cccc2c1CN(C1CCC(=O)NC1=O)C2=O (stereo not given) [Lenalidomide] + Nc1nc2[nH]cc(CCc3ccc(C(=O)N[C@@H](CCC(=O)O)C(=O)O)cc3)c2c(=O)[nH]1 [Pemetrexed] (partner 0.2 µM) below 0.4?
Reply: 1 (yes)

Task item: Just wondering, is relative viability of Nc1cccc2c1CN(C1CCC(=O)NC1=O)C2=O (stereo not given) [Lenalidomide] + CS(=O)(=O)N1CCN(Cc2cc3nc(-c4cccc5[nH]ncc45)nc(N4CCOCC4)c3s2)CC1 [Pictilisib] (partner 1 µM) below 0.4?
Reply: 1 (yes)

Where do these numbers come from? They come from the supplement of paper PMC10307832.
